Experimental System: Gal(b1-3)GalNAc(b1-4)[Neu5Ac(a2-3)]Gal(b1-4)Glc
Protocol Notes: glycan array binding signal (z-score within array); higher = stronger binding
Measurement Parameters: glycan notation: IUPAC condensed, linker removed
The entries come from a sample that favours the strongest signals as a whole.
Measured Quantity: glycan array binding signal (z-score)

| Binder | Measured Quantity | Val |
| --- | --- | --- |
| Dectin-1 CTLD (Mus musculus), Q6QLQ4 (protein) MKYHSHIENLDEDGYTQLDFSTQDIHKRPRGSEKGSRAPSSPWRPIAVGLGILCFVVVVVAAVLGALAFWRHNSGRNPEEKDNFLSRNKENHKPTESSLDEKVAPSKASQTTGGFSQSCLPNWIMHGKSCYLFSFSGNSWYGSKRHCSQLGAHLLKIDNSKEFEFIESQTSSHRINAFWIGLSRNQSEGPWFWEDGSAFFPNSFQVRNTVPQESLLHNCVWIHGSEVYNQICNTSSYSICEKEL | glycan array binding signal (z-score) | -0.16 |
| UDA (Urtica dioica), P11218 (protein) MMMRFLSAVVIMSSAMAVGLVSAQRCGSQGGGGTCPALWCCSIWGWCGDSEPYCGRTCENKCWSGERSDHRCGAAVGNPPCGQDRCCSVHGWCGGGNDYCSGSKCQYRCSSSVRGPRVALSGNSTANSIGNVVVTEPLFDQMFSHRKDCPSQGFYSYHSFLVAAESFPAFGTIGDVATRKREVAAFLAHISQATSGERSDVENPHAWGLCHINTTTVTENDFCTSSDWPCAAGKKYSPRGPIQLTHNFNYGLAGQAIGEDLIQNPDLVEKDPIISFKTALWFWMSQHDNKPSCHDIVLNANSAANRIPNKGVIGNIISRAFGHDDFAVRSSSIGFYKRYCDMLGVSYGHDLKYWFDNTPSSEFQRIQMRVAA | glycan array binding signal (z-score) | -0.189 |
| RsaA-N-term (Caulobacter crescentus), P35828 (protein) MAYTTAQLVTAYTNANLGKAPDAATTLTLDAYATQTQTGGLSDAAALTNTLKLVNSTTAVAIQTYQFFTGVAPSAAGLDFLVDSTTNTNDLNDAYYSKFAQENRFINFSINLATGAGAGATAFAAAYTGVSYAQTVATAYDKIIGNAVATAAGVDVAAAVAFLSRQANIDYLTAFVRANTPFTAAADIDLAVKAALIGTILNAATVSGIGGYATATAAMINDLSDGALSTDNAAGVNLFTAYPSSGVSGSTLSLTTGTDTLTGTANNDTFVAGEVAGDGSGWSHPQFEKGG | glycan array binding signal (z-score) | -0.359 |

Incoming: Query: glycan array binding signal (z-score); subject: Calsepa (Calystegia sepium), P93114 (protein) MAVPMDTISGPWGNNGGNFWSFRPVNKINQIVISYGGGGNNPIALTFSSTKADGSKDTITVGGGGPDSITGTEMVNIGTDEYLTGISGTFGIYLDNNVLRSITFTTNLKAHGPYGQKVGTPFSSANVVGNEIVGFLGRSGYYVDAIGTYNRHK
Outgoing: -0.253

Incoming: # lookup: glycan array binding signal (z-score) of Flo11 (Saccharomyces cerevisiae), Q1H8S8 (protein) MGSSHHHHHHSSGLVPRGSHMFPTALVPRGSSEGTSCNSIVNGCPNLDFNWHMDQQNIMQYTLDVTSVSWVQDNTYQITIHVKGKENIDLKYLWSLKIIGVTGPKGTVQLYGYNENTYLIDNPTDFTATFEVYATQDVNSCQVWMPNFQIQFEYLQGSAAQYASSWQWGTTSFDLSTGCNNYDNQGHSQTDFPGFYWNIDCDNNCGGTKSS
Outgoing: 2.88

Hello, the source for this data is the supplement of paper PMC8728848, in case you need it.
